- System: Enterococcus faecalis
- experimental.details: Antibacterial activity against vancomycin-resistant Enterococcus faecalis ATCC 29212 after 24 hrs
- Assay type: functional
- settings: ATCC 29212, 24 h
Positions of bridges follow the written chain, without caps; N, C: chain ends. Non-standard residues stand in square brackets, D forms with d. Residues, ends and D or L forms follow the SMILES beside them. dNMeF = CN[C@H](Cc1ccccc1)C(=O)O

- compound: "CC[C@@H](C)[C@@H](NC(=O)[C@@H](CCC(N)=O)NC(=O)[C@H](CCCNC(=N)N)NC(=O)[C@@H](NC(=O)[C@@H](Cc1ccccc1)NC)[C@@H](C)CC)C(=O)N[C@H](C(=O)N[C@@H](CO)C(=O)N[C@H]1C(=O)N[C@@H](CCCNC(=N)N)C(=O)N[C@@H](CC(C)C)C(=O)N[C@@H]([C@@H](C)CC)C(=O)O[C@H]1C)[C@@H](C)CC (H-[dNMeF]IR[dQ][dI]IS[dT]RLI; ester 8-C)"
  quantity.unit: "µg/mL"
  MIC: 1
- compound: "CC[C@@H](C)[C@@H](NC(=O)[C@@H](CCCNC(=N)N)NC(=O)[C@H](CO)NC(=O)[C@@H](NC(=O)[C@@H](Cc1ccccc1)NC)[C@@H](C)CC)C(=O)N[C@H](C(=O)N[C@@H](CO)C(=O)N[C@H]1C(=O)N[C@@H](CCCNC(=N)N)C(=O)N[C@@H](CC(C)C)C(=O)N[C@@H]([C@@H](C)CC)C(=O)O[C@H]1C)[C@@H](C)CC (H-[dNMeF]IS[dR][dI]IS[dT]RLI; ester 8-C)"
  quantity.unit: "µg/mL"
  MIC: 1
- compound: "CC[C@@H](C)[C@@H](NC(=O)[C@@H](CCCNC(=N)N)NC(=O)[C@H](CO)NC(=O)[C@@H](NC(=O)[C@@H](Cc1ccccc1)NC)[C@@H](C)CC)C(=O)N[C@H](C(=O)N[C@@H](CO)C(=O)N[C@H]1C(=O)N[C@@H](C)C(=O)N[C@@H](CC(C)C)C(=O)N[C@@H]([C@@H](C)CC)C(=O)O[C@H]1C)[C@@H](C)CC"
  quantity.unit: "µg/mL"
  MIC: 0.5
- compound: "CC[C@@H](C)[C@@H](NC(=O)[C@@H](CCC(N)=O)NC(=O)[C@H](CO)NC(=O)[C@@H](NC(=O)[C@@H](Cc1ccccc1)NC)[C@@H](C)CC)C(=O)N[C@H](C(=O)N[C@@H](CO)C(=O)N[C@H]1C(=O)N[C@@H](CCCNC(=N)N)C(=O)N[C@@H](CC(C)C)C(=O)N[C@@H]([C@@H](C)CC)C(=O)O[C@H]1C)[C@@H](C)CC (H-[dNMeF]IS[dQ][dI]IS[dT]RLI; ester 8-C)"
  quantity.unit: "µg/mL"
  MIC: 1

---

- System: Staphylococcus aureus
- experimental.details: Antibacterial activity against methicillin-resistant Staphylococcus aureus isolate 1003 after 24 hrs
- Type: functional
- settings: isolate 1003, 24 h
Positions of bridges follow the written chain, without caps; N, C: chain ends. Non-standard residues stand in square brackets, D forms with d. Residues, ends and D or L forms follow the SMILES beside them. dNMeF = CN[C@H](Cc1ccccc1)C(=O)O
observed.property: MIC (µg/mL)

- molecule: "CC[C@@H](C)[C@@H](NC(=O)[C@@H](CCCNC(=N)N)NC(=O)[C@H](CCCNC(=N)N)NC(=O)[C@@H](NC(=O)[C@@H](Cc1ccccc1)NC)[C@@H](C)CC)C(=O)N[C@H](C(=O)N[C@@H](CO)C(=O)N[C@H]1C(=O)N[C@@H](C)C(=O)N[C@@H](CC(C)C)C(=O)N[C@@H]([C@@H](C)CC)C(=O)O[C@H]1C)[C@@H](C)CC (H-[dNMeF]IR[dR][dI]IS[dT]ALI; ester 8-C)"
  observed.property: "MIC"
  result.qualifier: "="
  value.observed: 1
- molecule: "CC[C@@H](C)[C@@H](NC(=O)[C@@H](CCCNC(=N)N)NC(=O)[C@H](CO)NC(=O)[C@@H](NC(=O)[C@@H](Cc1ccccc1)NC)[C@@H](C)CC)C(=O)N[C@H](C(=O)N[C@@H](CO)C(=O)N[C@H]1C(=O)N[C@@H](C)C(=O)N[C@@H]([C@@H](C)CC)C(=O)N[C@@H]([C@@H](C)CC)C(=O)O[C@H]1C)[C@@H](C)CC"
  observed.property: "MIC"
  result.qualifier: "<"
  value.observed: 0.0625
- molecule: "CC[C@@H](C)[C@@H](NC(=O)[C@@H](CCC(N)=O)NC(=O)[C@H](CCCNC(=N)N)NC(=O)[C@@H](NC(=O)[C@@H](Cc1ccccc1)NC)[C@@H](C)CC)C(=O)N[C@H](C(=O)N[C@@H](CO)C(=O)N[C@H]1C(=O)N[C@@H](C)C(=O)N[C@@H]([C@@H](C)CC)C(=O)N[C@@H]([C@@H](C)CC)C(=O)O[C@H]1C)[C@@H](C)CC"
  observed.property: "MIC"
  result.qualifier: "="
  value.observed: 0.125
- molecule: "CC[C@@H](C)[C@@H](NC(=O)[C@@H](CCC(N)=O)NC(=O)[C@H](CCCNC(=N)N)NC(=O)[C@@H](NC(=O)[C@@H](Cc1ccccc1)NC)[C@@H](C)CC)C(=O)N[C@H](C(=O)N[C@@H](CO)C(=O)N[C@H]1C(=O)N[C@@H](C)C(=O)N[C@@H](CC(C)C)C(=O)N[C@@H]([C@@H](C)CC)C(=O)O[C@H]1C)[C@@H](C)CC (H-[dNMeF]IR[dQ][dI]IS[dT]ALI; ester 8-C)"
  observed.property: "MIC"
  result.qualifier: "<"
  value.observed: 0.0625

---

- System: Staphylococcus aureus
- experimental.details: Antibacterial activity against Staphylococcus aureus ATCC 29213 after 24 hrs
- Format: functional
- settings: ATCC 29213, 24 h
Positions of bridges follow the written chain, without caps; N, C: chain ends. Non-standard residues stand in square brackets, D forms with d. Residues, ends and D or L forms follow the SMILES beside them. dNMeF = CN[C@H](Cc1ccccc1)C(=O)O
In this section, each of the molecules is paired with its reported MIC.
observed.property: MIC

- molecule: "CC[C@@H](C)[C@@H](NC(=O)[C@@H](CCC(N)=O)NC(=O)[C@H](CO)NC(=O)[C@@H](NC(=O)[C@@H](Cc1ccccc1)NC)[C@@H](C)CC)C(=O)N[C@H](C(=O)N[C@@H](CO)C(=O)N[C@H]1C(=O)N[C@@H](CCCNC(=N)N)C(=O)N[C@@H](CC(C)C)C(=O)N[C@@H]([C@@H](C)CC)C(=O)O[C@H]1C)[C@@H](C)CC (H-[dNMeF]IS[dQ][dI]IS[dT]RLI; ester 8-C)"
  observed.property: "MIC"
  value.observed: "0.5 µg/mL"
- molecule: "CC[C@@H](C)[C@@H](NC(=O)[C@@H](CCCNC(=N)N)NC(=O)[C@H](CO)NC(=O)[C@@H](NC(=O)[C@@H](Cc1ccccc1)NC)[C@@H](C)CC)C(=O)N[C@H](C(=O)N[C@@H](CO)C(=O)N[C@H]1C(=O)N[C@@H](C)C(=O)N[C@@H](CC(C)C)C(=O)N[C@@H]([C@@H](C)CC)C(=O)O[C@H]1C)[C@@H](C)CC"
  observed.property: "MIC"
  value.observed: "< 0.0625 µg/mL"
- molecule: "CC[C@@H](C)[C@@H](NC(=O)[C@@H](CCC(N)=O)NC(=O)[C@H](CCCNC(=N)N)NC(=O)[C@@H](NC(=O)[C@@H](Cc1ccccc1)NC)[C@@H](C)CC)C(=O)N[C@H](C(=O)N[C@@H](CO)C(=O)N[C@H]1C(=O)N[C@@H](C)C(=O)N[C@@H]([C@@H](C)CC)C(=O)N[C@@H]([C@@H](C)CC)C(=O)O[C@H]1C)[C@@H](C)CC"
  observed.property: "MIC"
  value.observed: "0.5 µg/mL"
- molecule: "CC[C@@H](C)[C@@H](NC(=O)[C@@H](CCCNC(=N)N)NC(=O)[C@H](CO)NC(=O)[C@@H](NC(=O)[C@@H](Cc1ccccc1)NC)[C@@H](C)CC)C(=O)N[C@H](C(=O)N[C@@H](CO)C(=O)N[C@H]1C(=O)N[C@@H](CCCNC(=N)N)C(=O)N[C@@H](CC(C)C)C(=O)N[C@@H]([C@@H](C)CC)C(=O)O[C@H]1C)[C@@H](C)CC (H-[dNMeF]IS[dR][dI]IS[dT]RLI; ester 8-C)"
  observed.property: "MIC"
  value.observed: "1 µg/mL"
